B1: DFFB (parent)
chain: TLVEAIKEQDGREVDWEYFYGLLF

variants of: B1; experiment: protein stability index of a GFP-peptide fusion (GPS, HEK-293T) (PSI 1-6); higher = more stable; settings: c terminus: a fixed tail appended;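 also: lentivirally expressed fusions sorted by FACS into six bins by GFP to DsRed ratio, PSI derived from sequencing read proportions per bin multiplied by bin number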
Short version: protein stability index at least 2 is T, less is F.

| CHANGES | CLASS NAME |
| --- | --- |
| R12I | F |
| L23S | T |
| K7I | T |
| E8R | T |
| E13P | F |
| R12E | T |
| Y18Q | T |
| F24H | T |
| D10R | F |
| Y18S | T |
| W16K | F |
| E4A | F |
| I6Y | F |
| E8G | T |
| D10Y | F |
| T1K | T |
| Y18M | F |
| E17N | F |
| W16Q | T |
| D15F | F |
| L23Q | T |
| Q9P | T |
| W16G | T |
| W16H | F |
| Y20S | F |
| V14C | F |
| Y18T | F |
| G11A | F |
| E4P | T |
| L2G | T |
| L2N | T |
| E8I | F |
| Y18A | F |
| R12P | T |
| V14F | F |
| V14E | T |
| F19L | T |
| L22M | F |
| K7W | T |
| E8H | T |
| D10M | F |
| V14P | F |
| F19Y | T |
| R12Q | T |
| E8M | F |
| E4L | F |
| D15G | F |
| F19M | T |
| E17I | F |
| L22E | T |
| Q9V | F |
| Q9R | T |
| A5D | T |
| V3W | F |
| K7P | T |
| L22H | T |
| T1H | F |
| L23V | F |
| F19N | T |
| L23M | T |
| R12H | T |
| I6R | T |
| E8Q | F |
| T1D | T |
| W16D | T |
| Y20M | T |
| E13K | T |
| A5F | F |
